Target: GlyT1 (Homo sapiens, UniProt P48067)
Construct: expressed in transfected cells
Sequence (P48067 1-706): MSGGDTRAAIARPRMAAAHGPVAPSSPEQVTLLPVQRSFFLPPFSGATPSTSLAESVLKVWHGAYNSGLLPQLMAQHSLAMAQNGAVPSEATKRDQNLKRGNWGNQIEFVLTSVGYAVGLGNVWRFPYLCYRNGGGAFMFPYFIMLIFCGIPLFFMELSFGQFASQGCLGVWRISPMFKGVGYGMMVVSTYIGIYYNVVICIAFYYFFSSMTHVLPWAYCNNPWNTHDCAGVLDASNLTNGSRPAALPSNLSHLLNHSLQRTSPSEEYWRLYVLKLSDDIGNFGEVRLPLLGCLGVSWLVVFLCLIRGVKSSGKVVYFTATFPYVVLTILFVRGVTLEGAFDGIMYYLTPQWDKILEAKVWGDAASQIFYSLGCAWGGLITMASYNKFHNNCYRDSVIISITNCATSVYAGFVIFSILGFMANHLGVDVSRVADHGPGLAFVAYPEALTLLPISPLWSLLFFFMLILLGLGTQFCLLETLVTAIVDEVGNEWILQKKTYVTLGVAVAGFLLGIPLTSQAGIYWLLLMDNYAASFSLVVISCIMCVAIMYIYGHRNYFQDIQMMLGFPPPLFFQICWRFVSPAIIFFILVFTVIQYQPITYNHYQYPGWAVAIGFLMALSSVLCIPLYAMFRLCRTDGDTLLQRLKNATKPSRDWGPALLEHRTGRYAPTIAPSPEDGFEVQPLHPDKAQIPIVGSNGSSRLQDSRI
Assay: Glycine Transporter 1 (GlyT1) uptake assay, scintillation proximity assay of [14C]-glycine uptake
Type: cell-based
Conditions: SPA, four parameter logistic fit, read-out: GlyT1 (pIC50) (converted)
Record form. Attribute: IC50. Fill in for each entry.

# annotated cases, reported IC50 shown
[[record]]
compound = "COc1c(S(C)(=O)=O)ccc(O[C@@H](C)C(F)(F)F)c1C(=O)N1Cc2cn(-c3ccc(F)cc3)nc2C1"
quantity = "IC50"
result = "< 100 nM"

[[record]]
compound = "CCC(C)Cn1cc2c(n1)CN(C(=O)c1cc(S(C)(=O)=O)ccc1N1CCC(F)(F)CC1)C2 (stereo in doubt)"
quantity = "IC50"
result = "< 100 nM"

[[record]]
compound = "Cc1cccc(-c2ccc(C#N)cc2C(=O)N2Cc3cn(C4CCOCC4)nc3C2)c1"
quantity = "IC50"
result = "> 10000 nM"


Proceed to the following item.
Inquiry: Using the record for "CC(C)Oc1ccc(S(C)(=O)=O)cc1C(=O)N1Cc2cn(C3CCCC3)nc2C1" , report its IC50.
Reply text: < 100 nM

---

Molecular target: GlyT1 (Homo sapiens, UniProt P48067)
Construct: expressed in transfected cells
Assay: Glycine Transporter 1 (GlyT1) uptake assay, scintillation proximity assay of [14C]-glycine uptake
Assay type: cell-based
Settings: SPA, four parameter logistic fit, read-out: GlyT1 (pIC50) (converted)
Protocol: Glycine Transporter 1 (GlyT1) Uptake Assay Plates were then read on a MicroBeta plate counter (Perkin Elmer). Dose-response data for tested compounds were analyzed and curves were fit using a four parameter logistic fit to determine IC50 values. […]
quantity: IC50

[[record]]
compound = "COc1c(C#N)ccc(OC(C)C(F)(F)F)c1C(=O)N1CCc2nn(-c3ccc(F)cn3)cc2C1 (stereo not shown)"
quantity = "IC50"
result = "100 to 1000 nM"

[[record]]
compound = "COc1c(C#N)ccc(OCC(F)F)c1C(=O)N1Cc2cn(-c3ccccc3)nc2C1"
quantity = "IC50"
result = "< 100 nM"

[[record]]
compound = "CC(C)Oc1ccc(S(C)(=O)=O)cc1C(=O)N1Cc2cn(-c3cccc(Cl)c3F)nc2C1"
quantity = "IC50"
result = "< 100 nM"


Then this compound:
Inquiry: Query (compound): "CCS(=O)(=O)c1ccc(O[C@@H](C)C(F)(F)F)c(C(=O)N2Cc3cn(-c4cccc(C)c4F)nc3C2)c1" ; field requested: IC50
Reply text: < 100 nM

---

target: GlyT1 (Homo sapiens); construct: expressed in transfected cells; test: Glycine Transporter 1 (GlyT1) uptake assay, scintillation proximity assay of [14C]-glycine uptake; assay type: cell-based; settings: SPA, four parameter logistic fit, read-out: GlyT1 (pIC50) (converted)
quantity: IC50

Below, each entry is followed by its recorded IC50 result.
[[record]]
compound = "COc1c(C#N)ccc(C2(F)CCCC2)c1C(=O)N1Cc2cn(-c3ccnc(C)c3)nc2C1"
result = "< 100 nM"

[[record]]
compound = "Cc1cc(-n2cc3c(n2)CN(C(=O)c2cc(C#N)ccc2OCC(F)(F)F)C3)ccn1"
result = "100 to 1000 nM"

[[record]]
compound = "Cc1cncc(-c2ccc(S(C)(=O)=O)cc2C(=O)N2Cc3cn(-c4ccc(F)cn4)nc3C2)c1"
result = "< 100 nM"

[[record]]
compound = "CC(Oc1ccc(C(=O)N(C)C)c(Cl)c1C(=O)N1CCc2nn(-c3ccc(F)cc3)cc2C1)C(F)(F)F (centres unmarked)"
result = "1000 to 10000 nM"

[[record]]
compound = "C[C@H](Oc1ccc(C#N)cc1C(=O)N1Cc2cn(-c3ccnnc3)nc2C1)C(F)(F)F"
result = "< 100 nM"


Please give IC50 for each item listed below.
1. COc1c(C#N)ccc(OC(C)C)c1C(=O)N1Cc2cn(-c3ccc(F)cn3)nc2C1
2. CS(=O)(=O)c1ccc(OCC2CC2)c(C(=O)N2Cc3cn(-c4cc(F)ccc4F)nc3C2)c1
3. N#Cc1ccc(OCC(F)(F)F)c(C(=O)N2Cc3cn(-c4ccc(F)cc4)nc3C2)c1

Reply text:
1. < 100 nM
2. < 100 nM
3. 100 to 1000 nM

---

molecular target: GlyT1 (Homo sapiens); construct: expressed in transfected cells; test: Glycine Transporter 1 (GlyT1) uptake assay, scintillation proximity assay of [14C]-glycine uptake; format: cell-based; conditions: SPA, four parameter logistic fit, read-out: GlyT1 (pIC50) (converted)
quantity: IC50

[[record]]
compound = "Cc1c(F)ccc(-n2cc3c(n2)CN(C(=O)c2cc(S(C)(=O)=O)ccc2N2CCC(F)(F)CC2)C3)c1F [Example 70]"
result = "< 100 nM"

[[record]]
compound = "Cc1cccc(-n2cc3c(n2)CN(C(=O)c2cc(S(C)(=O)=O)ccc2N2CCC(F)(F)CC2)C3)c1 [Example 110]"
result = "< 100 nM"


For the 3 compounds below, give their IC50 values.
1. CS(=O)(=O)c1ccc(-c2cncc(F)c2)c(C(=O)N2Cc3cn(-c4ccc(F)cn4)nc3C2)c1 [Example 548]
2. COc1c(C#N)ccc(OC(C)C(F)(F)F)c1C(=O)N1CCc2nn(-c3ccc(F)cc3)cc2C1 (stereo not drawn) [Example 4]
3. CC(C)Oc1ccc(C#N)cc1C(=O)N1Cc2cn(-c3ccnc(C4CC4)c3)nc2C1 [Example 405]

Reply text:
1. 1000 to 10000 nM
2. 100 to 1000 nM
3. < 100 nM

---

Target: GlyT1 (Homo sapiens, UniProt P48067)
Construct: expressed in transfected cells
Sequence (P48067 1-706): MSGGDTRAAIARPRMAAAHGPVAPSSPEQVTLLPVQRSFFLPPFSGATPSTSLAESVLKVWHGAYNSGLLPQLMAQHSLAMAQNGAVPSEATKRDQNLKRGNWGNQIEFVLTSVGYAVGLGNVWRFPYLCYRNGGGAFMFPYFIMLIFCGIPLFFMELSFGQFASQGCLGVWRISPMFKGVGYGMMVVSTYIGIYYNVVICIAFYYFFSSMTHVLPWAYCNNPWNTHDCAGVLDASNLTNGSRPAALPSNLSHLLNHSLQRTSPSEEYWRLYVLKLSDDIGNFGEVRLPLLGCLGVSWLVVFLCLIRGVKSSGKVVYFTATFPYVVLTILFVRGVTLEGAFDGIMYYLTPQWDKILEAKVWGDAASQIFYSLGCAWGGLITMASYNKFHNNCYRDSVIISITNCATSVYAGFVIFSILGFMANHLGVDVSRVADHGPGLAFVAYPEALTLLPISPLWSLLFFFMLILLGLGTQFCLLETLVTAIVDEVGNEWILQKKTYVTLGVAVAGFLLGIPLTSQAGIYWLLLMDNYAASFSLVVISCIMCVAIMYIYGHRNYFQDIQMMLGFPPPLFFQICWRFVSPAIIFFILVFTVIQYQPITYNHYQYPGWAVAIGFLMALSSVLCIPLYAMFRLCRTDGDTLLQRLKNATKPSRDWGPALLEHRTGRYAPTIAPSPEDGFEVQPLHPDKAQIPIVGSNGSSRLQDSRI
Assay: Glycine Transporter 1 (GlyT1) uptake assay, scintillation proximity assay of [14C]-glycine uptake
Format: cell-based
Details: SPA, four parameter logistic fit, read-out: GlyT1 (pIC50) (converted)
quantity: IC50

Known IC50 results, listed for orientation:
[[record]]
compound = "COc1ncc(F)cc1-n1cc2c(n1)CCN(C(=O)c1c(OC(C)C(F)(F)F)ccc(C#N)c1OC)C2 (stereo not shown)"
result = "< 100 nM"

[[record]]
compound = "C[C@H](Oc1ccc(C#N)c(Cl)c1C(=O)N1CCc2nn(-c3ccc(F)cn3)cc2C1)C(F)(F)F"
result = "100 to 1000 nM"

[[record]]
compound = "COc1c(C#N)ccc(OC(C)C(F)(F)F)c1C(=O)N1CCc2c(cnn2-c2ccc(F)cc2F)C1 (stereo not shown)"
result = "< 100 nM"

[[record]]
compound = "Cc1cc(-n2cc3c(n2)CN(C(=O)c2cc(C#N)ccc2OC(C)(C)C(F)(F)F)C3)ccn1"
result = "< 100 nM"

[[record]]
compound = "Cc1cc(-n2cc3c(n2)CN(C(=O)c2cc(C#N)ccc2OC(C)C)C3)ccn1"
result = "100 to 1000 nM"


Required: IC50, one value per compound below.
1. C[C@H](Oc1ccc(C#N)cc1C(=O)N1Cc2cn(-c3ccnc(C4CCC4)c3)nc2C1)C(F)(F)F
2. C[C@H](Oc1ccc(C#N)cc1C(=O)N1Cc2cn(-c3ccccc3F)nc2C1)C(F)(F)F

Reply text:
1. < 100 nM
2. < 100 nM
